B1: Unconventional myosin-Ie, residues 1051 to 1108; numbered along this chain, Q12965 (parent)
chain: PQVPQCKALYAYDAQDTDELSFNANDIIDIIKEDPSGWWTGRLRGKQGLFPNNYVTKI

Variants of: B1
Assay: abundance fitness (aPCA) (normalised: wild type 0, dead -1); higher = more abundant; growth selection in yeast, the domain comes from the species named
Conditions: Homo sapiens
Attribute Measured: abundance fitness

1) D29E	-0.072
2) Y12A	-0.803
3) L20K	-0.836
4) P35A	-0.07
5) A11N	0.022
6) K7M	-0.092
7) Y54C	-0.087
8) D18L	-0.063
9) D16P	-0.798
10) L43Q	-0.621
11) N53T	-0.275
12) Q5T	0.01
13) P35L	-0.29
14) K32Q	-0.139
15) P51A	-0.341
16) W39M	-0.35
17) T56P	-0.534
18) P1D	-0.164
19) C6S	-0.448
20) N25V	-0.753
21) G41N	-0.87
22) A24D	-0.477
